Source of measurements: patent US11230541B2

Molecular target: NMDA receptor composed of four subunits including 2 sets of heterodimers of NR1 and NR2B (Homo sapiens)
Construct: host or cells: HEK293 (tetracycline-induced expression)
Sequence (Q13224 27-1484, other chains not shown): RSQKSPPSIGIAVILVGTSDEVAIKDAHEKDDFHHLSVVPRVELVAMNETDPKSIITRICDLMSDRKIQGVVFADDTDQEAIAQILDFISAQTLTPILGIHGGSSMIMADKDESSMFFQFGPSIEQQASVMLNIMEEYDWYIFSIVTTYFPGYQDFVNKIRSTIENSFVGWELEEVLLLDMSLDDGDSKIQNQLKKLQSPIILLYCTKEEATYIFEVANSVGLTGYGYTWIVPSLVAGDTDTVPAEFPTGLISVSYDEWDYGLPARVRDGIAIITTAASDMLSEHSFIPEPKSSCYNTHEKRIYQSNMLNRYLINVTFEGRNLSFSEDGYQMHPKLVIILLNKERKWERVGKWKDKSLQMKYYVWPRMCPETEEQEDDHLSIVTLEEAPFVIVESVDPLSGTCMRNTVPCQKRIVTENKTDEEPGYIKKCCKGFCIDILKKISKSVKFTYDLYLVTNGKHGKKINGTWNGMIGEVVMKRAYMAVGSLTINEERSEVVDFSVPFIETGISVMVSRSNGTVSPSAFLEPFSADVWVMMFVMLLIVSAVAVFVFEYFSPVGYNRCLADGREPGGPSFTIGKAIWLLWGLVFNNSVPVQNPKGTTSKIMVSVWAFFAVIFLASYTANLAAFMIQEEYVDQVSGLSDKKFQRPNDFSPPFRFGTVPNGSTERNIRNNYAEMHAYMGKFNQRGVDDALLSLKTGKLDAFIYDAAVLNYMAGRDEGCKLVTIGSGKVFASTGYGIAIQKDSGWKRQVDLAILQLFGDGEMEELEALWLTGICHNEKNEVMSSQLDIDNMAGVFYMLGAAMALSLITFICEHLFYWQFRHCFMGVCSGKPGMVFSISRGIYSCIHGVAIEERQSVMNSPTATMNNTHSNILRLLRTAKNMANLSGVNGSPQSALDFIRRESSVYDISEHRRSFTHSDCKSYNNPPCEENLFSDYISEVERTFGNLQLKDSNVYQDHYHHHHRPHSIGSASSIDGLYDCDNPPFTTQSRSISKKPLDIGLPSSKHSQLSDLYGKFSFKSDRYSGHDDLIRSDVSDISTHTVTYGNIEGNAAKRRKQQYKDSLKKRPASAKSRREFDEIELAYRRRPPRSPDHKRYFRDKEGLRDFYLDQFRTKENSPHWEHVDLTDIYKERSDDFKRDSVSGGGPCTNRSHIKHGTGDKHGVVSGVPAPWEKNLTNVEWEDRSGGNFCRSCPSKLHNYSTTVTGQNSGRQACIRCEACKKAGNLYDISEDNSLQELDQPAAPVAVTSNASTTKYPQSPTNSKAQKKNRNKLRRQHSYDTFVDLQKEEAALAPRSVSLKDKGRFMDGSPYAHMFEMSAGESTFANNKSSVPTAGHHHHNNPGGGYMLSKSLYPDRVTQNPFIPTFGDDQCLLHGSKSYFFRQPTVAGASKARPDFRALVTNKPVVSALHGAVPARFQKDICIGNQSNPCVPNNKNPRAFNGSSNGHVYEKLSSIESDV
Assay: NR2B Ca2+ influx assay (FLIPR, Fluo-4) in HEK293 cells expressing human GRIN1 and GRIN2B
Type: cell-based
Details: HEK293, 10 μM final compound concentration, glutamic acid/glycine-induced Ca2+ influx, read-out: inhibitory rate (10 μM compound concentration)
Hi there, I'd appreciate the recorded inhibition at 10 µM for every entry that follows.
Returns: string containing the numeric result and its unit.

Here are 5 molecules together with their reported answers.
- compoundSmiles: "Cc1ccc2ncn(C)c2c1CNC(=O)c1ccc(OC(F)(F)F)c(Cl)c1"
  inhibition at 10 µM: "94%"
- compoundSmiles: "Cc1ccc2[nH]nnc2c1CNC(=O)c1cc(F)c(F)c(Cl)c1"
  inhibition at 10 µM: "83%"
- compoundSmiles: "O=C(NCc1c(C2CC2)ccc2[nH]ncc12)c1ccc(C(F)F)cc1"
  inhibition at 10 µM: "90%"
- compoundSmiles: "COc1ccc2nc(C)n(C)c2c1CNC(=O)c1ccc(C(F)F)cc1"
  inhibition at 10 µM: "70%"
- compoundSmiles: "COc1ccc2nc(C)n(C)c2c1CNC(=O)c1cc(F)c(C)c(F)c1"
  inhibition at 10 µM: "60%"

List inhibition at 10 µM for every entry below, keeping the order given.
1. CCOc1ccc2ncn(C)c2c1CNC(=O)c1csc(C(F)F)c1
2. O=C(NCc1c(C2CC2)ccc2[nH]ncc12)c1ccc(F)c(C(F)(F)F)c1
3. COc1ccc2nc(C)n(C)c2c1CNC(=O)c1ccc(C)c(F)c1

1: 92%; 2: 93%; 3: 61%

# batch: return inhibition at 10 µM for each of the 8 molecules below
1. COc1ccc2nc(C)n(C)c2c1CNC(=O)c1ccc(OC(F)F)nc1
2. Cc1ccc(C(=O)NCc2c(C)ccc3[nH]nnc23)cc1F
3. COc1ccc(C(=O)NCc2c(OC)ccc3ncn(C)c23)cc1F
4. O=C(NCc1cccc2[nH]ncc12)c1ccc(C(F)(F)F)c(F)c1
5. COc1ccc2ncn(C)c2c1CNC(=O)Nc1cccc(Cl)c1
6. Cc1ccc2ncn(C)c2c1CNC(=O)c1csc(C2CC2)c1
7. O=C(NCc1c(C2CC2)ccc2[nH]ncc12)c1cnc(OC(F)F)c(Cl)c1
8. Cc1ccc2nn(C)cc2c1CNC(=O)c1ccc(OC(F)(F)F)cc1

69%
85%
92%
80%
72%
90%
91%
82%

Provide each entry's inhibition at 10 µM from the list below.
1. O=C(NCc1cccc2[nH]ncc12)c1ccc(C(F)F)c(Cl)c1
2. COc1ccc2nc(C)n(C)c2c1CNC(=O)c1cnc(OC(F)F)c(F)c1
3. COc1ccc2ncn(C)c2c1CNC(=O)Nc1ccc(C)cc1

1: 86%; 2: 76%; 3: 90%
